Items are presented alongside their recorded inhibition of growth at 100 µg/mL.
# Test system: Escherichia coli
# experimental.protocol: Antimicrobial activity against Escherichia coli O157:H7 at 100 ug/ml
# Type: functional
# test.settings: read-out: GI

Study these solved cases before continuing.
[
  {
    "compound": "O=C1C=C(c2ccc(O)cc2)/C(=C/c2ccc(O)cc2)O1 [RUBROLIDE E]",
    "subject.of.test": "Escherichia coli",
    "endpoint.result": "16%"
  },
  {
    "compound": "O=C1C=C(c2ccc(O)c(Br)c2)/C(=C/c2ccc(O)cc2)O1",
    "subject.of.test": "Escherichia coli",
    "endpoint.result": "0%"
  },
  {
    "compound": "COc1ccc(/C=C2\\OC(=O)C=C2c2ccc(O)cc2)cc1Br",
    "subject.of.test": "Escherichia coli",
    "endpoint.result": "22%"
  },
  {
    "compound": "O=C1C=C(c2ccc(O)c(Br)c2)/C(=C/c2ccc(O)c(Br)c2)O1",
    "subject.of.test": "Escherichia coli",
    "endpoint.result": "25%"
  },
  {
    "compound": "COc1ccc(/C=C2\\OC(=O)C=C2c2ccc(O)c(Br)c2)cc1",
    "subject.of.test": "Escherichia coli",
    "endpoint.result": "14%"
  }
]

Here's the next entry for you.
Give inhibition of growth at 100 µg/mL only, for COc1ccc(/C=C2\OC(=O)C=C2c2ccc(O)cc2)cc1 [RUBROLIDE F] , using Escherichia coli data. 15%
